# target-under-test: mouse TMEM16A mutant K603Q (Mus musculus, UniProt Q8BHY3, K603Q)
# Construct: expressed in transfected cells; host or cells: HEK293T
# Sequence (Q8BHY3 whole entry K603Q): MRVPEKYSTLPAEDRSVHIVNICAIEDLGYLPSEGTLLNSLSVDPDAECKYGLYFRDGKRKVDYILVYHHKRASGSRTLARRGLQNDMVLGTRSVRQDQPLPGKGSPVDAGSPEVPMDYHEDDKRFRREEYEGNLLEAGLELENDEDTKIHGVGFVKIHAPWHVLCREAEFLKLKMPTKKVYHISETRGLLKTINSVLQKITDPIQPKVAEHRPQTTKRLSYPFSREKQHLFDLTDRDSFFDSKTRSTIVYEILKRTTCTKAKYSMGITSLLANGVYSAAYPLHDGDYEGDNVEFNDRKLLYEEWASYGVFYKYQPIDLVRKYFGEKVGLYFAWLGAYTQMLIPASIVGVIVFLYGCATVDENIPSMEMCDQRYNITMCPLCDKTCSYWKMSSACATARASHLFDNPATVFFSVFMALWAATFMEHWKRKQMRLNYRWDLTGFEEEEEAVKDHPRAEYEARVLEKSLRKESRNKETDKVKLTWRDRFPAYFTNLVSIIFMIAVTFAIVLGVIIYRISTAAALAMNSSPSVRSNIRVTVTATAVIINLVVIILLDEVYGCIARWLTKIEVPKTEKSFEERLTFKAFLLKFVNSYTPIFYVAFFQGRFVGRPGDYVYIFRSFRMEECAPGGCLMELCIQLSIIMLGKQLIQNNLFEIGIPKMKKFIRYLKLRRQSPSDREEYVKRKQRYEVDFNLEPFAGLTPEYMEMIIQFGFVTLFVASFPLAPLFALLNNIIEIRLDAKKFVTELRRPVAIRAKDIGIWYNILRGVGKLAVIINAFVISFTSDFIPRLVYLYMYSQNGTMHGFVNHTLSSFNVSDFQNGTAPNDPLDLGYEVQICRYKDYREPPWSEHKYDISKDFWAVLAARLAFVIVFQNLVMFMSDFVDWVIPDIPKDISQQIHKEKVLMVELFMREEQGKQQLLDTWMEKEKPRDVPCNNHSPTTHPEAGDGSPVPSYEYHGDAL
# procedure-details: Inside-out patch recording of 1PBC block, mutant K603Q
# Type: cell-based
# run-parameters: K603Q; V -140 mV
value-type: pIC50
Interpret pIC50 as the negative base-10 log of the concentration measured in mol/L.

**Q:** Value wanted: pIC50 (mouse TMEM16A mutant K603Q (Mus musculus, UniProt Q8BHY3, K603Q)) of entry N#Cc1c(C(F)(F)F)cc(O)n2c1nc1ccccc12 [1PBC]
**A:** 3.67
